IC50 by entry:
test-target: CECR2 (Homo sapiens)
Construct: 424-538 was cloned, expressed, and purified to homogeneity; Flag; made in house
test-method-notes: CECR2 TR-FRET Binding Assay
measurement-parameters: read-out: IC50
reported-endpoint: IC50 (nM)

> print(dat)
                                    molecule           test.target  assay.value
 1  CN(CC1CCN(CC2CCCOC2)CC1)C(=O)c1cn(C)c(=O)c2[nH]ccc12 (stereo not shown)  CECR2 (Homo sapiens)          790
 2  Cc1ccc(N2CCC(N(C)C(=O)c3cn(C)c(=O)c4[nH]ccc34)CC2)cc1  CECR2 (Homo sapiens)          930
 3  CN(CC1CCN(Cc2ccccc2F)CC1)C(=O)c1cn(C)c(=O)c2[nH]ccc12  CECR2 (Homo sapiens)          990
 4  CN(CC1CCN(CC2CCC2)CC1)C(=O)c1cn(C)c(=O)c2[nH]ccc12  CECR2 (Homo sapiens)          770
 5  C=CCn1cc(C(=O)N(C)C2CCCc3ccncc32)c2cc(C)[nH]c2c1=O (single isomer, unassigned) [Example 290]  CECR2 (Homo sapiens)           50
 6  Cn1cc(C(=O)N2CCC(CCc3ccncc3)CC2)c2cc[nH]c2c1=O  CECR2 (Homo sapiens)          350
 7  C=CCn1cc(C(=O)N(C)C2CCCc3ccncc32)c2cc(C)[nH]c2c1=O (single isomer, unassigned) [Example 291]  CECR2 (Homo sapiens)          140
 8  Cn1cc(C(=O)NCCN2CCS(=O)(=O)CC2)c2cc[nH]c2c1=O  CECR2 (Homo sapiens)         3100
 9  C=CCn1cc(C(=O)N(C)C2CCCc3ccc(C)cc32)c2cc(C)[nH]c2c1=O (single isomer, unassigned)  CECR2 (Homo sapiens)           84
10  CN(CC1CCN(Cc2ccc(F)cc2)CC1)C(=O)c1cn(C)c(=O)c2[nH]ccc12  CECR2 (Homo sapiens)         1100
11  CC(c1ccccc1)N1CCC(CN(C)C(=O)c2cn(C)c(=O)c3[nH]ccc23)CC1 (stereo not shown)  CECR2 (Homo sapiens)          730
12  CC(C)N1CCC(N(C(=O)c2cn(C)c(=O)c3[nH]ccc23)C2CC2)CC1  CECR2 (Homo sapiens)         2000
13  COC1CCN(C(=O)c2cn(C)c(=O)c3[nH]ccc23)CC1  CECR2 (Homo sapiens)         2400
14  C=CCn1cc(C(=O)N(C)C2CCCc3ccc(F)cc32)c2cc(C)[nH]c2c1=O (stereo not shown)  CECR2 (Homo sapiens)           53
15  C=CCn1cc(C(=O)N(C)C2CCN(c3ncnc4c3CCC4)CC2)c2cc[nH]c2c1=O  CECR2 (Homo sapiens)           91
16  CCc1cccc(N2CCC(N(C)C(=O)c3cn(C)c(=O)c4[nH]ccc34)CC2)c1  CECR2 (Homo sapiens)          690

====

test-target: CECR2 (Homo sapiens, UniProt Q9BXF3)
Construct: 424-538 was cloned, expressed, and purified to homogeneity; Flag; made in house
Sequence (Q9BXF3 424-538 limits assumed): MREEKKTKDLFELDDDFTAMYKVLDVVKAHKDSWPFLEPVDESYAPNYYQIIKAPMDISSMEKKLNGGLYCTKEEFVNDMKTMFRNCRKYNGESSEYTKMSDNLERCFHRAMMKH
test-method-notes: CECR2 TR-FRET Binding Assay
measurement-parameters: read-out: IC50
pIC50: −log10 of the molar value.
reported-endpoint: pIC50

> print(dat)
                                   molecule  assay.value
1  C=CCn1cc(C(=O)N(C)C2CCCc3cc(OC)ccc32)c2cc(C)[nH]c2c1=O (single isomer, unassigned) [Example 282]         7.17
2  CN1CCN(C2CCN(C(=O)c3cn(C)c(=O)c4[nH]ccc34)CC2)CC1         6.00
3  Cc1cnc(N2CCC(N(C)C(=O)c3cn(C)c(=O)c4[nH]ccc34)CC2)nc1         6.47
4  Cn1cc(C(=O)N2CCC(Cc3ccc(F)cc3)CC2)c2cc[nH]c2c1=O         6.35
5  C=CCn1cc(C(=O)N(C)C2CCOc3cc(F)ccc32)c2cc(C)[nH]c2c1=O (centres unmarked)         7.24
6  CN(C(=O)c1cn(C)c(=O)c2[nH]ccc12)C1CCN(Cc2cccc(Cl)c2)CC1         6.11
7  CCN1CCC(CCN(C)C(=O)c2cn(C)c(=O)c3[nH]ccc23)CC1         6.39
8  CCN(C(=O)c1cn(C)c(=O)c2[nH]ccc12)C1CCN(C(C)C)CC1         5.70

====

test-target: CECR2 (Homo sapiens, UniProt Q9BXF3)
Construct: 424-538 was cloned, expressed, and purified to homogeneity; Flag; made in house
test-method-notes: CECR2 TR-FRET Binding Assay
measurement-parameters: read-out: IC50
reported-endpoint: IC50 (nM)

> print(dat)
                                    compound  assay.value
 1  CN(CC1CCN(CC2CCCC2)CC1)C(=O)c1cn(C)c(=O)c2[nH]ccc12          790
 2  COCC1CCN(C(=O)c2cn(C)c(=O)c3[nH]ccc23)CC1         2200
 3  CCN(CC)C1CCN(C(=O)c2cn(C)c(=O)c3[nH]ccc23)CC1         5100
 4  C=CCn1cc(C(=O)N(C)[C@H]2[C@@H]3CN(c4ccnc(C#N)n4)C[C@@H]32)c2cc[nH]c2c1=O         4800
 5  C=CCn1cc(C(=O)N(C)C2CCCc3c(C)cccc32)c2cc(C)[nH]c2c1=O (centres unmarked)          150
 6  C=CCn1cc(C(=O)N(C)C2CCCc3c(OC)cccc32)c2cc(C)[nH]c2c1=O (single isomer, unassigned) [Example 289]           45
 7  CCc1ccc(N2CCC(N(C)C(=O)c3cn(C)c(=O)c4[nH]ccc34)CC2)cc1          740
 8  CN(C(=O)c1cn(C)c(=O)c2[nH]ccc12)C1CCN(c2cccc(C(F)(F)F)c2)CC1          590
 9  COc1ccc(CN2CCC(N(C)C(=O)c3cn(C)c(=O)c4[nH]ccc34)CC2)cc1          670
10    Cn1cc(C(=O)N2CCC(CO)CC2)c2cc[nH]c2c1=O         4800
11  Cc1ccc(CN2CCC(N(C)C(=O)c3cn(C)c(=O)c4[nH]ccc34)CC2)cc1          770
12  C=CCn1cc(C(=O)N(C)C2CCCc3cc(OC)ccc32)c2cc(C)[nH]c2c1=O (single isomer, unassigned) [Example 281]           32
13  CN(C(=O)c1cn(C)c(=O)c2[nH]ccc12)C1CCN(c2cccnn2)CC1          410
14  C=CCn1cc(C(=O)N(C)C2CCN(c3cc(-c4ccco4)ncn3)CC2)c2cc(C)[nH]c2c1=O           33
15  Cc1ccnc(N2CCC(N(C)C(=O)c3cn(C)c(=O)c4[nH]ccc34)CC2)n1          430
16  CN(C(=O)c1cn(C)c(=O)c2[nH]ccc12)C1CCN(CCC2CC2)CC1          700
17  C=CCn1cc(C(=O)N(C)C2CCN(c3cncc(-n4cccn4)n3)CC2)c2cc[nH]c2c1=O           23
18  CN(CC1CCN(CC2CCCCC2)CC1)C(=O)c1cn(C)c(=O)c2[nH]ccc12          370
19  CN(C(=O)c1cn(C)c(=O)c2[nH]ccc12)C1CCN(Cc2ccc(C#N)cc2)CC1          710
20  CC1CCN(C2CCN(C(=O)c3cn(C)c(=O)c4[nH]ccc34)CC2)CC1         1500
21  CC(CN(C)C)NC(=O)c1cn(C)c(=O)c2[nH]ccc12 (centres unmarked)        14000
22   CC1CCN(C(=O)c2cn(C)c(=O)c3[nH]ccc23)CC1         1400
23  C=CCn1cc(C(=O)N(C)C2CCOc3ccccc32)c2cc(C)[nH]c2c1=O (centres unmarked)           53
